Every entry's value here was drawn from patent US8722670B2.

- Tgt: hNR2B (Homo sapiens, UniProt Q05586+Q13224)
- Construct: expressed in transfected cells; host or cells: Xenopus laevis oocytes, cRNA-injected
- Sequence (Q13224 27-1484, other chains not shown): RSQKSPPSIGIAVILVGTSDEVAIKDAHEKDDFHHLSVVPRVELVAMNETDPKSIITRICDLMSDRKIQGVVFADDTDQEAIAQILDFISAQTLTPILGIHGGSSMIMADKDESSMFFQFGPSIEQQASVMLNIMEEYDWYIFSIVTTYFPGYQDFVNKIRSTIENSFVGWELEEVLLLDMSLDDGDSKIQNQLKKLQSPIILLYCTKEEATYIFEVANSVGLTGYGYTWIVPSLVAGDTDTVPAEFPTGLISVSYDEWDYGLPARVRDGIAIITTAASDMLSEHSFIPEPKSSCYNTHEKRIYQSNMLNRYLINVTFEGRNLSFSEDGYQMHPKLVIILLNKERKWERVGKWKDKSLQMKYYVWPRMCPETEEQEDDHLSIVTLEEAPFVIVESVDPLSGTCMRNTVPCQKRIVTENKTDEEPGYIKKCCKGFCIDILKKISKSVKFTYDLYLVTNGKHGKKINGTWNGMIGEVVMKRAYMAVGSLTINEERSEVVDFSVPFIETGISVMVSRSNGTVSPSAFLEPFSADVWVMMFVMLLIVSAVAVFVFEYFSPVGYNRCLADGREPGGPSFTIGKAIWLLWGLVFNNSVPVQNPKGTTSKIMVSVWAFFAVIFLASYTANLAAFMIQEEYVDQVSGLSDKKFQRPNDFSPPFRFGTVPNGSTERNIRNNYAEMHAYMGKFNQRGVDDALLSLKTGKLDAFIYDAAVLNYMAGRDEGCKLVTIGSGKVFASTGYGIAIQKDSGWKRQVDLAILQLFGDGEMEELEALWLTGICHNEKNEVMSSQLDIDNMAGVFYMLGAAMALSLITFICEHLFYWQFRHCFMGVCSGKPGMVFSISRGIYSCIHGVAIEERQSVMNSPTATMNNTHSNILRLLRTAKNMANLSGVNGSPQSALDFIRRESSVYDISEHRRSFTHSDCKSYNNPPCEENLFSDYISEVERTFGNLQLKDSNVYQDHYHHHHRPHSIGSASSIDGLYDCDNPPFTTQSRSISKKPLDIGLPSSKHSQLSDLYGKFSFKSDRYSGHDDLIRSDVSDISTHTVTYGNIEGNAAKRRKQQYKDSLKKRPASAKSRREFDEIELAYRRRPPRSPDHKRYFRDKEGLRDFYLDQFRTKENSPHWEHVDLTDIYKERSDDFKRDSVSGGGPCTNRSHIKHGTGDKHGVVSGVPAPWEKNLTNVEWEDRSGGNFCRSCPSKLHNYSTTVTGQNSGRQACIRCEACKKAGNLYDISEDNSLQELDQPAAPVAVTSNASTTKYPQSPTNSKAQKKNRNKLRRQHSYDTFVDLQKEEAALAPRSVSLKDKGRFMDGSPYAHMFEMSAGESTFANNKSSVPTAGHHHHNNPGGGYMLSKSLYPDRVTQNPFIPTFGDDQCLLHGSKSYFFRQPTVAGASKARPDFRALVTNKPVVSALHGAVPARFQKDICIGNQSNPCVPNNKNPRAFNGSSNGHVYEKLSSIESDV
- Test description: Electrophysiology NMDA receptor experiments: two electrode voltage-clamp in Xenopus laevis oocytes, hNR2B IC50
- Type: cell-based
- Condition: hNR2B activity class, 50 μM glutamate, 30 μM glycine, read-out: Activity
pIC50: −log10 of the molar value.
Readout name: pIC50

A selection of reference data follows.
molecule=O=C1CCc2cc(CCc3nnc(Nc4ccc(C(F)(F)F)cc4)o3)ccc2N1 tgt="hNR2B (Homo sapiens, UniProt Q05586+Q13224)" result="> 6.70"
molecule=O=c1ccc2cc(OCc3nnc(Nc4ccc(F)cc4)o3)ccc2[nH]1 tgt="hNR2B (Homo sapiens, UniProt Q05586+Q13224)" result="5.00 to 6.00"
molecule=O=C1CCc2cc(OCc3nnc(NCc4ccc(Cl)nc4)o3)ccc2N1 tgt="hNR2B (Homo sapiens, UniProt Q05586+Q13224)" result="< 5.00"
molecule=O=c1ccc2cc(OCc3nnc(NCc4ccccc4C(F)(F)F)o3)ccc2[nH]1 tgt="hNR2B (Homo sapiens, UniProt Q05586+Q13224)" result="5.00 to 6.00"
molecule=Cn1c(CCNc2ncnc3[nH]ncc23)nnc1Nc1ccc(OC(F)F)cc1 tgt="hNR2B (Homo sapiens, UniProt Q05586+Q13224)" result="> 6.70"
molecule=O=c1ccc2cc(OCc3nc(Nc4ccc(F)cc4)no3)ccc2[nH]1 tgt="hNR2B (Homo sapiens, UniProt Q05586+Q13224)" result="< 5.00"
molecule=Cc1cc(Nc2noc(CCc3ccc4[nH]ncc4c3)n2)ccc1OC(F)F tgt="hNR2B (Homo sapiens, UniProt Q05586+Q13224)" result="6.00 to 6.70"
molecule=O=C1Cc2cc(OCc3nnc(Nc4ccc(Cl)c(Cl)c4)o3)ccc2N1 tgt="hNR2B (Homo sapiens, UniProt Q05586+Q13224)" result="> 6.70"
molecule="CC(Oc1ccc2[nH]c(=O)ccc2c1)c1nnc(Nc2ccc(OC(F)F)c(Cl)c2)o1 (stereo not shown)" tgt="hNR2B (Homo sapiens, UniProt Q05586+Q13224)" result="> 6.70"

Please turn your attention to the following entry.
Which pIC50 is reported for this molecule? O=c1ccc2cc(CCc3nnc(Nc4ccc(C(F)(F)F)cc4)o3)ccc2[nH]1
> 6.70

---

- Tgt: hNR2B (Homo sapiens, UniProt Q05586+Q13224)
- Construct: expressed in transfected cells; host or cells: Xenopus laevis oocytes, cRNA-injected
- Test description: Electrophysiology NMDA receptor experiments: two electrode voltage-clamp in Xenopus laevis oocytes, hNR2B IC50
- Format: cell-based
- Condition: hNR2B activity class, 50 μM glutamate, 30 μM glycine, read-out: Activity
Readout name: IC50

Before answering, review these 5 worked examples.
molecule="O=c1ccc2cc(OCc3nnc(Nc4ccc(Cl)cc4)o3)ccc2[nH]1 [Example 12]" result="< 200 nM"
molecule="O=c1[nH]c2ccc(OCc3nnc(NCc4ccc(Cl)c(Cl)c4)o3)cc2[nH]1 [Example 112]" result="< 200 nM"
molecule="COc1ccc(Nc2noc(CCc3ccc4[nH]ncc4c3)n2)cc1C [Example 213]" result="1000 to 10000 nM"
molecule="O=C1CCc2cc(CCc3nnc(Nc4ccc(Cl)cc4)o3)ccc2N1 [Example 129]" result="< 200 nM"
molecule="Oc1ccc(OCc2nnc(Nc3ccc(Cl)c(Cl)c3)o2)nn1 [Example 118]" result="1000 to 10000 nM"

Let's switch to this molecule now.
Fill in: IC50 of Oc1ccc(CCc2nc(Nc3ccc(OC(F)F)c(F)c3)no2)cc1 [Example 219] is ___
< 200 nM

---

The entries below come with measured IC50 values attached.
- Tgt: hNR2B (Homo sapiens, UniProt Q05586+Q13224)
- Construct: expressed in transfected cells; host or cells: Xenopus laevis oocytes, cRNA-injected
- Test description: Electrophysiology NMDA receptor experiments: two electrode voltage-clamp in Xenopus laevis oocytes, hNR2B IC50
- Format: cell-based
- Condition: voltage clamp -40 mV, 50 μM glutamate, 30 μM glycine, read-out: hNR2B IC50
Field: numeric (nM). Do not append units.

Some compounds with recorded IC50:
compound="O=C1CCc2cc(OCc3nnc(NCc4ccc(Cl)cc4)o3)ccc2N1 [Example 20]" result=476
compound="Cc1cc(Nc2noc(C3CC3c3ccc4[nH]c(=O)ccc4c3)n2)ccc1OC(F)F (stereo not drawn) [Example 235]" result=44
compound="O=C1CCc2cc(OCCNc3nnc(-c4ccc(C(F)(F)F)cc4)o3)ccc2N1 [Example 291]" result=1200

Read the next record carefully.
Give the measured IC50 of O=c1ccc2cc(CCc3nc(Nc4ccc(OC(F)F)c(Cl)c4)no3)ccc2[nH]1 [Example 208] .
11

---

- Tgt: hNR2B (Homo sapiens, UniProt Q05586+Q13224)
- Construct: expressed in transfected cells; host or cells: Xenopus laevis oocytes, cRNA-injected
- Test description: Electrophysiology NMDA receptor experiments: two electrode voltage-clamp in Xenopus laevis oocytes, hNR2B IC50
- Type: cell-based
- Condition: hNR2B activity class, 50 μM glutamate, 30 μM glycine, read-out: Activity
pIC50: −log10 of the molar value.
Readout name: pIC50

Worked cases, answers included:
molecule="CC(Oc1ccc2[nH]c(=O)ccc2c1)c1nnc(Nc2ccc(Cl)c(Cl)c2)o1 (stereo not shown) [Example 106]" tgt="hNR2B (Homo sapiens, UniProt Q05586+Q13224)" readout_name=pIC50 result="> 6.70"
molecule=O=C1CCc2cc(OCc3nnc(Nc4ccc(OC(F)(F)F)cc4)s3)ccc2N1 tgt="hNR2B (Homo sapiens, UniProt Q05586+Q13224)" readout_name=pIC50 result="> 6.70"
molecule=Clc1ccc(Nc2noc(CCCc3ccc4[nH]ncc4c3)n2)cc1Cl tgt="hNR2B (Homo sapiens, UniProt Q05586+Q13224)" readout_name=pIC50 result="< 5.00"
molecule=Clc1ccc(Nc2nnc(COc3ccc4[nH]ncc4c3)o2)cc1Cl tgt="hNR2B (Homo sapiens, UniProt Q05586+Q13224)" readout_name=pIC50 result="> 6.70"
molecule=Fc1cc(Nc2noc(CCc3ccc4cn[nH]c4c3)n2)ccc1Cl tgt="hNR2B (Homo sapiens, UniProt Q05586+Q13224)" readout_name=pIC50 result="< 5.00"
molecule=FC(F)(F)Oc1ccc(Nc2noc(CCc3ccc4[nH]nc(C(F)(F)F)c4c3)n2)cc1 tgt="hNR2B (Homo sapiens, UniProt Q05586+Q13224)" readout_name=pIC50 result="< 5.00"
molecule=O=c1ccc2cc(OCc3nnc(NCc4cccc(F)c4)o3)ccc2[nH]1 tgt="hNR2B (Homo sapiens, UniProt Q05586+Q13224)" readout_name=pIC50 result="6.00 to 6.70"
molecule=Clc1ccc(Nc2nnc(CCCc3ccc4[nH]ncc4c3)o2)cc1Cl tgt="hNR2B (Homo sapiens, UniProt Q05586+Q13224)" readout_name=pIC50 result="5.00 to 6.00"
molecule=CC1(C)Cc2cc(OCc3nnc(Nc4ccc(Cl)c(Cl)c4)o3)ccc2NC1=O tgt="hNR2B (Homo sapiens, UniProt Q05586+Q13224)" readout_name=pIC50 result="5.00 to 6.00"

Turning now to a further record.
Any idea what its pIC50 is? The molecule is Cc1ccc(Nc2noc(COc3ccc4[nH]c(=O)ccc4c3)n2)cc1
5.00 to 6.00

---

- Tgt: hNR2B (Homo sapiens, UniProt Q05586+Q13224)
- Construct: expressed in transfected cells; host or cells: Xenopus laevis oocytes, cRNA-injected
- Test description: Electrophysiology NMDA receptor experiments: two electrode voltage-clamp in Xenopus laevis oocytes, hNR2B IC50
- Format: cell-based
- Condition: hNR2B activity class, 50 μM glutamate, 30 μM glycine, read-out: Activity
Readout name: IC50

Below are worked cases with known answers.
structure=O=c1ccc2cc(OCc3cc(Nc4ccc(Cl)c(C(F)(F)F)c4)no3)ccc2[nH]1 tgt="hNR2B (Homo sapiens, UniProt Q05586+Q13224)" result="1 to 10 µM"
structure=Oc1ccc(OCc2nnc(NCc3ccc(Cl)c(Cl)c3)o2)cc1 tgt="hNR2B (Homo sapiens, UniProt Q05586+Q13224)" result="< 0.2 µM"
structure=O=c1ccc2cc(OCc3cc(Nc4ccc(OC(F)F)c(Cl)c4)no3)ccc2[nH]1 tgt="hNR2B (Homo sapiens, UniProt Q05586+Q13224)" result="< 0.2 µM"
structure=Oc1ccc(OCc2nnc(Nc3ccc(Cl)c(Cl)c3)o2)cc1 tgt="hNR2B (Homo sapiens, UniProt Q05586+Q13224)" result="< 0.2 µM"
structure=O=c1ccc2cc(OCc3nnc(NCc4cccc(Cl)c4)o3)ccc2[nH]1 tgt="hNR2B (Homo sapiens, UniProt Q05586+Q13224)" result="0.201 to 1 µM"

Next up:
For O=c1ccc2cc(OCc3nc(Nc4ccc(C(F)(F)F)c(F)c4)no3)ccc2[nH]1 , what is its reported IC50?
> 10 µM
